molecular target: DPP IV (Rattus norvegicus, UniProt P14740); experiment: Invitro DPP4 inhibition assay in rat plasma; details: substrate Gly-Pro-AMC
Sequence (P14740 37-767 limits assumed): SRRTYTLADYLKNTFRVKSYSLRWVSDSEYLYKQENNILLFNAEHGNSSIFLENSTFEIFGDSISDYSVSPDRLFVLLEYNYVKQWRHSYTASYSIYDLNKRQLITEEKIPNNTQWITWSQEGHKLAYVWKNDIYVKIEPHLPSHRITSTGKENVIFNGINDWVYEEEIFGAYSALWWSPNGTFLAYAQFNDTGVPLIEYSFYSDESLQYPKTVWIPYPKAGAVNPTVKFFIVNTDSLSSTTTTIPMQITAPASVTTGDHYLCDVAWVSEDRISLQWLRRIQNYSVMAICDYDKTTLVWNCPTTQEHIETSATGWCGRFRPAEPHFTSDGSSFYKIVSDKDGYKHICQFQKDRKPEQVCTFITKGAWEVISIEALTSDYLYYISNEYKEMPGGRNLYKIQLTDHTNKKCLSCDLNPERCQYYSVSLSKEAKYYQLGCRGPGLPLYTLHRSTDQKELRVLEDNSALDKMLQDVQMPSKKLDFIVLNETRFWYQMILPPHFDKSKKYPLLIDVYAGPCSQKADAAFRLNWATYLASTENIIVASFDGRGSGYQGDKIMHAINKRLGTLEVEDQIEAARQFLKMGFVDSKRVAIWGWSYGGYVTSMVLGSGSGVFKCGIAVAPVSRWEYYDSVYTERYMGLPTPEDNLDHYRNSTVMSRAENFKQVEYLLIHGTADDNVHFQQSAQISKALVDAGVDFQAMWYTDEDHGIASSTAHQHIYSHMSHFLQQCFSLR
Value Kind: IC50 (nM)

CCOCCO[C@@H]1O[C@H](CN2CCC(C)(NCC(=O)N3CCC[C@H]3C#N)CC2)[C@H]2OC(C)(C)O[C@@H]12 [Example 123]: 14.3
CC1(NCC(=O)N2CCC[C@H]2C#N)CCN(C[C@H]2O[C@@H]3OC(C)(C)O[C@@H]3[C@H]2O)CC1 [Example 135]: 22.3

a. CC1(NCC(=O)N2CCC[C@H]2C#N)CCN(S(=O)(=O)OC[C@H]2O[C@@H]3OC(C)(C)O[C@@H]3[C@H]3OC(C)(C)O[C@H]32)CC1 [Example 112]
b. CC1(C)O[C@@H]2[C@@H](CO[C@@]3(CN4CCC(NCC(=O)N5CCC[C@H]5C#N)CC4)OC(C)(C)O[C@@H]23)O1 [Example 1]
Ask: Lab note: check whether a or b shows the higher recorded IC50. // output: label of the selected item
Result: a
(a: 18.2 nM, b: 5.98 nM)

Taken from patent US20120040897A1.
